protocol-text: Half life in mouse at 1 mg/kg, iv
Type: ADME, organism-based
measurement-parameters: in vivo
value-type: half-life (h)
Numbers only, in h.

# count of solved cases: 3
Cn1cc2cc(/N=c3\[nH]c(=O)n(-c4cccnc4)c(=O)n3Cc3cc(F)c(F)cc3F)c(Cl)cc2n1
4.2
Cc1cncc(-n2c(=O)[nH]/c(=N\c3cc4cn(C)nc4cc3Cl)n(Cc3cc(Cl)c(F)c(Oc4ccc(F)cc4)c3)c2=O)c1
6
Cn1cc2cc(/N=c3\[nH]c(=O)n(-c4cncc(O[C@H]5CCOC5)c4)c(=O)n3Cc3cc(Cl)c(F)cc3F)c(Cl)cc2n1
1.6

Shifting focus to the compound that follows.
Name the recorded half-life for Cc1ccc(C#N)cc1Cn1c(=O)n(-c2cncc(SC3CC3)c2)c(=O)[nH]/c1=N\c1cc2cn(C)nc2cc1Cl .
2.2

====

Provide the reported pIC50 of each item.
test-target: CYP3A4/CYP3A5 (Homo sapiens, UniProt P08684+P20815)
protocol-text: Inhibition of CYP3A4/CYP3A5 (unknown origin)
pIC50: −log10 of the molar value.

Cn1cc2cc(/N=c3\[nH]c(=O)n(-c4cncc(O[C@H]5CCOC5)c4)c(=O)n3Cc3cc(Cl)c(F)cc3F)c(Cl)cc2n1
< 4.30
COCCOc1cncc(-n2c(=O)[nH]/c(=N\c3cc4cn(C)nc4cc3Cl)n(Cc3cc(Cl)c(F)cc3F)c2=O)c1
< 4.30

Shifting focus to the compound that follows.
Name the recorded pIC50 for COCCOc1cncc(-n2c(=O)[nH]/c(=N\c3cc4cn(C)nc4cc3Cl)n(Cc3cc(C#N)ccc3C)c2=O)c1 .
< 4.30

====

protocol-text: Apparent permeability across basolateral to apical side in human Caco-2 cells
Provide the reported Papp B→A of each item.
Give bare numbers, in ×10⁻⁶ cm/s.

# count of solved cases: 3
Cc1cncc(-n2c(=O)[nH]/c(=N\c3cc4cn(C)nc4cc3Cl)n(Cc3cc(Cl)c(F)cc3Sc3cccc(F)c3)c2=O)c1
3.38
Cc1ccc(C#N)cc1Cn1c(=O)n(-c2cncc(SC3CC3)c2)c(=O)[nH]/c1=N\c1cc2cn(C)nc2cc1Cl
6.01
COc1cncc(-n2c(=O)[nH]/c(=N\c3cc4cn(C)nc4cc3Cl)n(Cc3cc(Cl)c(F)cc3Oc3ccc(F)cc3)c2=O)c1
0.94

Name the recorded Papp B→A for Cn1cc2cc(/N=c3\[nH]c(=O)n(-c4cncc(O[C@H]5CCOC5)c4)c(=O)n3Cc3cc(Cl)c(F)cc3F)c(Cl)cc2n1 .
32.7
